Test system: MERS-CoV-S pseudovirus
Assay type: cell-based
Where a name gives a salt, the structure may show the parent alone.
reportedProperty: inhibition of MERS-CoV-S pseudovirus infection

compound	experimentalSystem	readoutValue
CCOC(=O)C1OC1C(=O)NC(CC(C)C)C(=O)NCCC(C)C (stereo not drawn) [E64d]	MERS-CoV-S pseudovirus	inhibited
CCN(CCO)CCCC(C)Nc1ccnc2cc(Cl)ccc12 (stereo not drawn) [hydroxychloroquine sulfate]	MERS-CoV-S pseudovirus	inhibited
CCN(CC)CCCC(C)Nc1ccnc2cc(Cl)ccc12 (stereo not drawn) [chloroquine diphosphate]	MERS-CoV-S pseudovirus	inhibited

---

Catalogue of viability at 10 µM values
protocolDescription: in vitro
conditionSet: human
Structures can show the parent of a compound that is named as a salt.
reportedProperty: viability at 10 µM (%)

In [3]: df
Out[3]:
                                    compound    reportedproperty  unitlabel  readoutvalue
 0  COc1cc(Nc2ncc3c(n2)-c2ccc(Cl)cc2C(c2c(F)cccc2OC)=NC3)ccc1C(=O)O [MLN8237 (Alisertib), Alisertib]  viability at 10 µM          %            63
 1  CN1CCN2c3ncccc3Cc3ccccc3C2C1 (stereo not drawn) [Mirtazapine]  viability at 10 µM          %           104
 2  CCOC(=O)c1ncn2c1CN(C)C(=O)c1cc(F)ccc1-2 [flumazenil]  viability at 10 µM          %           104
 3  CN(C)CC/C=C1/c2ccccc2COc2ccc(CC(=O)O)cc21 [Olopatadine HCl]  viability at 10 µM          %            99
 4  c1ccc2c(c1)sc1ccccc12 [Dibenzothiophene]  viability at 10 µM          %           102
 5  Cc1ccnc2c1NC(=O)c1cccnc1N2C1CC1 [Nevirapine]  viability at 10 µM          %           103
 6  COc1ccccc1OCCNCC(O)COc1cccc2[nH]c3ccccc3c12 (stereo not drawn) [Carvedilol]  viability at 10 µM          %            81
 7  NC(=O)N1CCC(CC(=O)N2CCC([C@H]3c4ncc(Br)cc4CCc4cc(Cl)cc(Br)c43)CC2)CC1 [lonafarnib]  viability at 10 µM          %           111
 8  CC(C(=O)O)c1ccc2c(c1)[nH]c1ccc(Cl)cc12 (stereo not drawn) [Carprofen]  viability at 10 µM          %           103
 9  CN1CCC(=C2c3ccccc3CC(=O)c3sccc32)CC1 [Ketotifen Fumarate]  viability at 10 µM          %            97
10  CN1CCN(C2=Nc3ccccc3Oc3ccc(Cl)cc32)CC1 [Loxapine Succinate]  viability at 10 µM          %            94
11  CCC(=O)NCC[C@@H]1CCc2ccc3c(c21)CCO3 [Ramelteon]  viability at 10 µM          %            99
12  CC(=O)Oc1cccc2c1C(=O)c1c(OC(C)=O)cc(C(=O)O)cc1C2=O [Diacerein]  viability at 10 µM          %           126
13  COc1cc2c(cc1OC)CN(CCc1ccc(NC(=O)c3cccc4c(=O)c5cccc(OC)c5[nH]c34)cc1)CC2 [elacridar]  viability at 10 µM          %            97
14  CC(C)/N=c1\cc2n(-c3ccc(Cl)cc3)c3ccccc3nc-2cc1Nc1ccc(Cl)cc1 [Clofazimine]  viability at 10 µM          %            77
15  NC(=O)N1c2ccccc2C=Cc2ccccc21 [Carbamazepine]  viability at 10 µM          %           105
16  CN1CCN(C2=Nc3cc(Cl)ccc3Nc3ccccc32)CC1 [Clozapine]  viability at 10 µM          %           103
17  CC(C(=O)O)c1ccc2c(c1)Cc1cccnc1O2 (stereo not drawn) [Pranoprofen]  viability at 10 µM          %           114

---

protocolDescription: in vitro
conditionSet: human, % Viability of SARS-2-Spike pv
Counter-ions that a name gives are not always drawn.

compound	viability
COc1cc2c(Oc3ccc4[nH]c(C)cc4c3F)ncnc2cc1OCCCN1CCCC1 [cediranib (AZD217), cediranib]	85%
CCOC(=O)C1OC1C(=O)NC(CC(C)C)C(=O)NCCC(C)C (stereo not shown) [E64d]	95%
CNCCCC12CCC(c3ccccc31)c1ccccc12 [maprotiline HCl]	99%
CN(C)CCCN1c2ccccc2CCc2ccc(Cl)cc21 [clomipramine HCl]	115%
CC/C(=C(\c1ccccc1)c1ccc(OCCN(C)C)cc1)c1ccccc1 [tamoxifen citrate]	107%
CC[C@H]1OC(=O)[C@H](C)[C@@H](O[C@H]2C[C@@](C)(OC)[C@@H](O)[C@H](C)O2)[C@H](C)[C@@H](O[C@@H]2O[C@H](C)C[C@H](N(C)C)[C@H]2O)[C@](C)(O)C[C@@H](C)CN(C)[C@H](C)[C@@H](O)[C@]1(C)O [azithromycin dihydrate]	94%
CCN(CCO)CCCC(C)Nc1ccnc2cc(Cl)ccc12 (stereo not shown) [hydroxychloroquine sulfate]	90%

---

System: SARS-CoV-1-S pseudovirus
Type: cell-based
Structures can show the parent of a compound that is named as a salt.
reportedProperty: inhibition of SARS-CoV-1-S pseudovirus infection

compound	experimentalSystem	readoutValue
CCN(CC)CCCC(C)Nc1ccnc2cc(Cl)ccc12 (stereo not drawn) [chloroquine diphosphate]	SARS-CoV-1-S pseudovirus	inhibited
CCOC(=O)C1=C(COCCN)NC(C)=C(C(=O)OC)C1c1ccccc1Cl (stereo not drawn) [amlodipine]	SARS-CoV-1-S pseudovirus	significant inhibition
CSc1ccc2c(c1)N(CCC1CCCCN1C)c1ccccc1S2 (stereo not drawn) [thioridazine HCl]	SARS-CoV-1-S pseudovirus	significant inhibition
CCN(CCO)CCCC(C)Nc1ccnc2cc(Cl)ccc12 (stereo not drawn) [hydroxychloroquine sulfate]	SARS-CoV-1-S pseudovirus	inhibited
CN1CCN(CCCN2c3ccccc3Sc3ccc(C(F)(F)F)cc32)CC1 [trifluoperazine 2HCl]	SARS-CoV-1-S pseudovirus	significant inhibition
CCOC(=O)C1OC1C(=O)NC(CC(C)C)C(=O)NCCC(C)C (stereo not drawn) [E64d]	SARS-CoV-1-S pseudovirus	inhibited
CN1CCN(c2nc(C3=C(c4c[nH]c5ccccc45)C(=O)NC3=O)c3ccccc3n2)CC1 [sotrastaurin]	SARS-CoV-1-S pseudovirus	significant inhibition

---

Catalogue of % Infectivity of VSV-G pv values
Test system: VSV-G pseudovirus
protocolDescription: microbe, parasite or virus in culture
Type: cell-based, vesicular stomatitis virus

compound	unitLabel	% Infectivity of VSV-G pv
CCOC(=O)C1=C(COCCN)NC(C)=C(C(=O)OC)C1c1ccccc1Cl (stereo not shown) [amlodipine besylate]	%	100
CC(=O)c1c(C)c2cnc(Nc3ccc(N4CCNCC4)cn3)nc2n(C2CCCC2)c1=O.Cl [palbociclib HCl]	%	63
CC[C@H]1OC(=O)[C@H](C)[C@@H](O[C@H]2C[C@@](C)(OC)[C@@H](O)[C@H](C)O2)[C@H](C)[C@@H](O[C@@H]2O[C@H](C)C[C@H](N(C)C)[C@H]2O)[C@](C)(O)C[C@@H](C)CN(C)[C@H](C)[C@@H](O)[C@]1(C)O [azithromycin]	%	93
Cc1c(-c2ccc(O)cc2)n(Cc2ccc(OCCN3CCCCCC3)cc2)c2ccc(O)cc12.Cl [bazedoxifene Hcl]	%	13
CCOC(=O)C1=C(COCCN)NC(C)=C(C(=O)OC)C1c1ccccc1Cl (stereo not shown) [amlodipine]	%	78

---

System: VSV-G pseudovirus
protocolDescription: microbe, parasite or virus in culture
Assay type: cell-based, vesicular stomatitis virus
conditionSet: Pseudovirus, 293T/ACE2, read-out: % Infectivity of VSV-G pv
Counter-ions that a name gives are not always drawn.
Catalogue of activity at 10 µM values
reportedProperty: activity at 10 µM (%)

>>> print(df.to_string())
                                    compound  unitlabel  readoutvalue
 0  CNC(=O)c1ccccc1Sc1ccc2c(/C=C/c3ccccn3)n[nH]c2c1          %             2
 1  CN(C)CCC=C1c2ccccc2CCc2ccccc21 [amitriptyline HCl]          %            80
 2             CN(C)CCCN1c2ccccc2CCc2ccccc21          %            84
 3  CC(=O)c1c(C)c2cnc(Nc3ccc(N4CCNCC4)cn3)nc2n(C2CCCC2)c1=O [palbociclib isethionate]          %            32
 4  CCOC(=O)c1ccc(C#Cc2ccc3c(c2)C(C)(C)CCS3)nc1          %           102
 5  CSc1ccc2c(c1)N(CCC1CCCCN1C)c1ccccc1S2 (centres unmarked) [thioridazine HCl]          %            69
 6  c1cn2cc(-c3ccc4cn[nH]c4c3)nc(Nc3ccc(N4CCOCC4)cc3)c2n1          %             1
 7  COc1cc(Nc2ncc3c(n2)-c2ccc(Cl)cc2C(c2c(F)cccc2OC)=NC3)ccc1C(=O)O          %            18
 8  CC(C)COc1ccc(CNC(=O)N(Cc2ccc(F)cc2)C2CCN(C)CC2)cc1          %            72
 9  CN1[C@@H]2CC[C@H]1C[C@@H](OC(c1ccccc1)c1ccccc1)C2 [benztropine mesylate]          %            93
10  CN1CCC(=C2c3ccccc3CCc3sccc32)CC1 [pizotifen malate]          %            77
11  CCOC(=O)C1OC1C(=O)NC(CC(C)C)C(=O)NCCC(C)C (centres unmarked) [E64d]          %           105
12  CC1CCC2(OC1)OC1CC3C4CCC5CC(OC6OC(CO)C(O)C(O)C6OC6OC(CO)C(O)C(O)C6O)CCC5(C)C4CCC3(C)C1C2C (centres unmarked)          %            85
13  CN(C)CCC=C1c2ccccc2C=Cc2ccccc21 [cyclobenzaprine HCl]          %            81
14  CN(C)CCCN1c2ccccc2CCc2ccc(Cl)cc21 [clomipramine HCl]          %            78
15  O=C(O[C@H]1CN2CCC1CC2)N1CCc2ccccc2[C@@H]1c1ccccc1 [solifenacin succinate]          %            86
16  CNCCCC12CCC(c3ccccc31)c1ccccc12 [maprotiline HCl]          %            89
